Experiment: Plasma pharmacokinetics of milademetan
Format: in vivo, human
Conditions: human, plasma, po, 120 mg/d, Tmax, Day 21 of cycle 1, Cohort 3 (120 mg/d) (n = 1), oral QD; median (minimum, maximum)
experimental readout: Tmax (h)
Answers are plain numbers, in h.

Entry under review: CC1(C)CCC2(CC1)N[C@@H](C(=O)N[C@@H]1CC[C@@H](C(N)=O)OC1)[C@H](c1ccnc(Cl)c1F)[C@]21C(=O)Nc2cc(Cl)ccc21 . Reported Tmax?
2.95

---

Assay: Plasma pharmacokinetics of milademetan
Assay type: in vivo, human
Details: human, plasma, po, 90 mg/d, Tmax, Day 21 of cycle 1, Cohort 2 (90 mg/d) (n = 9), oral QD; median (minimum, maximum)
experimental readout: Tmax (h)
Numbers only, in h.

Entry under review: CC1(C)CCC2(CC1)N[C@@H](C(=O)N[C@@H]1CC[C@@H](C(N)=O)OC1)[C@H](c1ccnc(Cl)c1F)[C@]21C(=O)Nc2cc(Cl)ccc21 . Reported Tmax?
3.02

---

Assay: Plasma pharmacokinetics of milademetan
Type: in vivo, human
Conditions: human, plasma, po, 60 mg/d, Tmax, Day 1 of cycle 1, Cohort 1 (60 mg/d) (n = 3), oral QD; median (minimum, maximum)
experimental readout: Tmax (h)
Answers are plain numbers, in h.

Entry under review: CC1(C)CCC2(CC1)N[C@@H](C(=O)N[C@@H]1CC[C@@H](C(N)=O)OC1)[C@H](c1ccnc(Cl)c1F)[C@]21C(=O)Nc2cc(Cl)ccc21 . Reported Tmax?
3

---

Test: Plasma pharmacokinetics of milademetan
Format: in vivo, human
Details: human, plasma, po, 90 mg/d, t1/2, Day 21 of cycle 1, Cohort 2 (90 mg/d) (n = 9), oral QD; mean (SD)
experimental readout: half-life (h)
Give bare numbers, in h.

Entry under review: CC1(C)CCC2(CC1)N[C@@H](C(=O)N[C@@H]1CC[C@@H](C(N)=O)OC1)[C@H](c1ccnc(Cl)c1F)[C@]21C(=O)Nc2cc(Cl)ccc21 [milademetan, Milademetan] . Reported half-life?
20.9

---

Test: Plasma pharmacokinetics of milademetan
Type: in vivo, human
Conditions: human, plasma, po, 90 mg/d, Tmax, Day 1 of cycle 1, Cohort 2 (90 mg/d) (n = 11), oral QD; median (minimum, maximum)
experimental readout: Tmax
Number plus unit, in that order.

Entry under review: CC1(C)CCC2(CC1)N[C@@H](C(=O)N[C@@H]1CC[C@@H](C(N)=O)OC1)[C@H](c1ccnc(Cl)c1F)[C@]21C(=O)Nc2cc(Cl)ccc21 . Reported Tmax?
3 h

---

Assay: Plasma pharmacokinetics of milademetan
Assay type: in vivo, human
Details: human, plasma, po, 120 mg/d, Cmax, Day 1 of cycle 1, Cohort 3 (120 mg/d) (n = 4), oral QD; mean (SD)
experimental readout: Cmax

Entry under review: CC1(C)CCC2(CC1)N[C@@H](C(=O)N[C@@H]1CC[C@@H](C(N)=O)OC1)[C@H](c1ccnc(Cl)c1F)[C@]21C(=O)Nc2cc(Cl)ccc21 . Reported Cmax?
1140 ng/mL

---

Experiment: Plasma pharmacokinetics of milademetan
Assay type: in vivo, human
Details: human, plasma, po, 90 mg/d, AUCtau, Day 1 of cycle 1, Cohort 2 (90 mg/d) (n = 11), oral QD; mean (SD)
experimental readout: AUC (ng·h/mL)
Give bare numbers, in ng·h/mL.

Entry under review: CC1(C)CCC2(CC1)N[C@@H](C(=O)N[C@@H]1CC[C@@H](C(N)=O)OC1)[C@H](c1ccnc(Cl)c1F)[C@]21C(=O)Nc2cc(Cl)ccc21 [milademetan, Milademetan] . Reported AUC?
8380
